EXPERIMENT: chemical genetic growth profiling, strain panel (AID 1159580);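 further: tested at 20 µM; growth read once vehicle control cultures reached saturation at 30 °C; 1 = growth at the plate median or of vehicle wells; lower values mean less growth of the strain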
EXPERIMENTAL_CONDITIONS: S. cerevisiae deletion strains, growth OD, locus YOL147C, strain pex11
The whole screen tested about 5,500 compounds, of which about 2,000 (36%) were called active. About 18% were inconclusive and are not listed. No stated cut-off is given here; in the data, active means normalized growth mostly below about 0.91 (no sharp cut-off); inconclusive means no clear call, values can overlap the other calls; inactive means mostly above about 0.92. The list shows a part of the results.
Outcomes you can answer with include only these: true (1) (active), false (0) (inactive)

Prompt: Returns: the outcome recorded for NCCc1ccc(O)cc1 in this assay.
Completion: false (0)

Prompt: Returns: the outcome recorded for CC(=O)O.CC(=O)O.[Cd] in this assay.
Completion: true (1)

Prompt: Returns: the outcome recorded for NCCc1cccc(O)c1 in this assay.
Completion: false (0)

Prompt: Returns: the outcome recorded for COc1cccc(-c2cc(=O)c3ccc(OC)cc3o2)c1 in this assay.
Completion: true (1)

Prompt: Returns: the outcome recorded for Clc1ccc(Cl)cc1 in this assay.
Completion: false (0)

Prompt: Returns: the outcome recorded for CC(N)Cc1ccc(O)cc1 (stereo not drawn) in this assay.
Completion: false (0)

Prompt: Returns: the outcome recorded for CC1(C)O[C@@H]2CC3C4CCC5=CC(=O)C=C[C@]5(C)[C@@]4(F)[C@@H](O)C[C@]3(C)[C@]2(C(=O)CO)O1 (stereo partly drawn) in this assay.
Completion: false (0)

Prompt: Returns: the outcome recorded for CN1CCOC(c2ccccc2)c2ccccc2C1 (stereo not drawn) in this assay.
Completion: false (0)

Prompt: Returns: the outcome recorded for CC1=NCCc2c1[nH]c1cc(O)ccc21 in this assay.
Completion: false (0)

Prompt: Returns: the outcome recorded for CCCCC1C(=O)N(c2ccccc2)N(c2ccccc2)C1=O in this assay.
Completion: false (0)

Prompt: Returns: the outcome recorded for CCCCCCc1ccc(O)cc1O in this assay.
Completion: true (1)

Prompt: Returns: the outcome recorded for CCCCCCCCCc1ccc(O)cc1 in this assay.
Completion: true (1)

Prompt: Returns: the outcome recorded for C=C1C2CC[C@@]3(C)[C@H](c4ccoc4)OC(=O)C[C@]13O[C@H]1CC(=O)C(C)(C)[C@H](C(O)C(=O)OC)[C@@]21C (stereo partly drawn) in this assay.
Completion: false (0)

* * *

Field: normalized growth. Provide a value for each of the compounds that follow.
EXPERIMENT: chemical genetic growth profiling, strain panel (AID 1159580);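 further: tested at 20 µM; growth read once vehicle control cultures reached saturation at 30 °C; 1 = growth at the plate median or of vehicle wells; lower values mean less growth of the strain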
EXPERIMENTAL_CONDITIONS: S. cerevisiae deletion strains, growth OD, locus YJL166W, strain qcr8, hits give low values
Hit rate of the full screen: of about 5,500 compounds, about 2,000 (36%) were called active. Not shown: some 18% with an inconclusive outcome. The list shows a part of the results.
Provide a numeric answer; units are not to be included.

Prompt: Requested read-out: normalized growth. Entry: O=C(O)/C=C(\CC(=O)O)C(=O)O
Completion: 0.998

Prompt: Requested read-out: normalized growth. Entry: O=c1c(-c2cc(O)c(O)c(O)c2)coc2cc(O)c(O)c(O)c12
Completion: 0.921

Prompt: Requested read-out: normalized growth. Entry: CCCN1C[C@H](CSC)C[C@@H]2c3cccc4[nH]cc(c34)C[C@H]21
Completion: 1.01

Prompt: Requested read-out: normalized growth. Entry: COc1ccc(-c2cc(=O)c3c(OC)c(OC)c(OC)c(OC)c3o2)cc1
Completion: 0.801

Prompt: Requested read-out: normalized growth. Entry: COc1ccc(-c2cc(=O)c3cc(OC)ccc3o2)cc1
Completion: 0.913

Prompt: Requested read-out: normalized growth. Entry: CC(=O)O[C@H]1C[C@H](O[C@H]2[C@@H](O)C[C@H](O[C@H]3[C@@H](O)C[C@H](O[C@H]4CC[C@@]5(C)C(CCC6C5C[C@@H](O)[C@]5(C)[C@@H](C7=CC(=O)OC7)CC[C@]65O)C4)O[C@@H]3C)O[C@@H]2C)O[C@H](C)[C@H]1O[C@@H]1O[C@H](CO)[C@@H](O)[C@H](O)[C@H]1O (stereo not given in full)
Completion: 1

Prompt: Requested read-out: normalized growth. Entry: CC(=O)[C@H]1CCC2C3CC=C4C[C@@H](OC(=O)CCC(=O)O)CC[C@]4(C)C3CC[C@@]21C (stereo not given in full)
Completion: 0.929

Prompt: Requested read-out: normalized growth. Entry: N[C@@H]1CONC1=O
Completion: 0.998

Prompt: Requested read-out: normalized growth. Entry: C[N+]1(CCCCC[N+]2(C)CCCC2)CCCC1
Completion: 0.999

Prompt: Requested read-out: normalized growth. Entry: CCCCCCCCCCCCCCCC[n+]1ccccc1
Completion: 0.0563

Prompt: Requested read-out: normalized growth. Entry: O=C1CC[C@]23C=CC(=O)NCCCCNCCCNC(=O)/C=C/c4ccc(c2c4)O[C@@H]3C1
Completion: 1.04

Prompt: Requested read-out: normalized growth. Entry: C[C@@H]1CC[C@@]2(OC1)OC1C(O)C3C4CC[C@H]5C[C@H](O[C@@H]6O[C@H](CO)[C@H](O[C@@H]7O[C@H](CO)[C@@H](O)[C@H](O[C@@H]8OC[C@@H](O)[C@H](O)[C@H]8O)[C@H]7O[C@@H]7O[C@H](CO)[C@H](O)[C@H](O[C@@H]8O[C@H](CO)[C@@H](O)[C@H](O)[C@H]8O)[C@H]7O)[C@H](O)[C@H]6O)[C@H](O)C[C@]5(C)C4CC[C@]3(C)C1[C@@H]2C (stereo not given in full)
Completion: 0.969

Prompt: Requested read-out: normalized growth. Entry: CC(C)(C)C(=O)C(Oc1ccc(Cl)cc1)n1cncn1 (stereo not given)
Completion: 0.109

Prompt: Requested read-out: normalized growth. Entry: CC(=O)[C@H]1CCC2C3CC=C4C[C@@H](O)CC[C@]4(C)C3CC[C@@]21C (stereo not given in full)
Completion: 0.895

Prompt: Requested read-out: normalized growth. Entry: ClC(Cl)=C(c1ccc(Cl)cc1)c1ccc(Cl)cc1
Completion: 0.975

Prompt: Requested read-out: normalized growth. Entry: COC(=O)C1=C(C)NC(C)=C(C(=O)OCC(C)C)C1c1ccccc1[N+](=O)[O-] (stereo not given)
Completion: 0.177

Prompt: Requested read-out: normalized growth. Entry: CCC(CCC(C)[C@H]1CCC2C3CC=C4C[C@@H](O)CC[C@]4(C)C3CC[C@@]21C)C(C)C (stereo not given in full)
Completion: 1.02

Prompt: Requested read-out: normalized growth. Entry: CC1(C)O[C@@H]2CC3C4CCC5=CC(=O)C=C[C@]5(C)[C@@]4(F)[C@@H](O)C[C@]3(C)[C@]2(C(=O)CO)O1 (stereo not given in full)
Completion: 0.996

Prompt: Requested read-out: normalized growth. Entry: O=c1c2ccccc2[se]n1-c1ccccc1
Completion: 0.0635

Prompt: Requested read-out: normalized growth. Entry: CCC(/C=C/[C@@H](C)[C@H]1CCC2C3CC=C4C[C@@H](O)CC[C@]4(C)C3CC[C@@]21C)C(C)C (stereo not given in full)
Completion: 0.981

Prompt: Requested read-out: normalized growth. Entry: N[C@H](CO)Cc1ccccc1
Completion: 1.02

Prompt: Requested read-out: normalized growth. Entry: CC(=O)Oc1ccc(-c2cc(=O)c3c(OC(C)=O)cc(OC(C)=O)cc3o2)cc1
Completion: 0.971

Prompt: Requested read-out: normalized growth. Entry: COC(=O)C1=C(C)NC(C)=C(C(=O)OCCN(C)Cc2ccccc2)C1c1cccc([N+](=O)[O-])c1 (stereo not given)
Completion: 0.993

Prompt: Requested read-out: normalized growth. Entry: COc1c(O)cc2c(-c3ccccc3)cc(=O)oc2c1OC
Completion: 0.999

Prompt: Requested read-out: normalized growth. Entry: Cc1cc2cc3c(C)cc(=O)oc3c(C)c2o1
Completion: 0.989

Prompt: Requested read-out: normalized growth. Entry: COc1cc([C@@H]2c3cc4c(cc3[C@H](O)[C@H]3COC(=O)[C@@H]23)OCO4)cc(OC)c1OC
Completion: 1.03

Prompt: Requested read-out: normalized growth. Entry: Cn1nnnc1SCC1=C(C(=O)O)N2C(=O)C(NC(=O)C(O)c3ccccc3)C2SC1 (stereo not given)
Completion: 0.968

Prompt: Requested read-out: normalized growth. Entry: COc1cc([C@@H]2c3cc4c(cc3[C@H](OC(C)=O)[C@H]3COC(=O)[C@H]23)OCO4)cc(OC)c1OC
Completion: 0.995

Prompt: Requested read-out: normalized growth. Entry: CN1CCOC(c2ccccc2)c2ccccc2C1 (stereo not given)
Completion: 0.968

Prompt: Requested read-out: normalized growth. Entry: CC(=O)Oc1cc(-c2coc3cc(OC(C)=O)c(OC(C)=O)c(OC(C)=O)c3c2=O)cc(OC(C)=O)c1OC(C)=O
Completion: 0.906

Prompt: Requested read-out: normalized growth. Entry: O=C1c2c(O)ccc(O)c2C(=O)c2c(NCCNCCO)ccc(NCCNCCO)c21
Completion: 0.858

Prompt: Requested read-out: normalized growth. Entry: S=c1ccss1
Completion: 0.914

Prompt: Requested read-out: normalized growth. Entry: COc1ccc(-c2cc(=O)c3ccccc3o2)cc1OC
Completion: 0.824

Prompt: Requested read-out: normalized growth. Entry: FC(F)(F)C(Cl)Br (stereo not given)
Completion: 1.03

Prompt: Requested read-out: normalized growth. Entry: CC(C)(O)[C@@H]1CC[C@](C)([C@H]2[C@@H](O)C[C@@]3(C)C4C[C@H](O[C@@H]5O[C@H](CO)[C@@H](O)[C@H](O)[C@H]5O)C5C(C)(C)[C@@H](O[C@@H]6OC[C@@H](O)[C@H](O)[C@H]6O)CC[C@@]56C[C@@]46CC[C@]23C)O1 (stereo not given in full)
Completion: 0.987

src = PubChem BioAssay AID1159580
